Entries annotated with measured log10(IC50)
# Tested on: HL60 cells
# Protocol Text: Anti-proliferation on HL60 cells (CellTiter-Glo, 3 days)
# Format: cell-based
# Settings: Homo sapiens, HL-60, 72 h, 3 days incubation, CTG luminescence, IC50 by XLfit, read-out: HL60 cells Proliferation inhibitory activity
# Description: HL60 cells (Cell Bank of Chinese Academy of Sciences) in the logarithmic growth phase were counted and plated evenly in a 96-well transparent bottom white plate at 20000 cells per well and 100 μL per well. A certain amount of the compound of the present invention was weighed and diluted with DMSO to a 10 mM stock solution. […]
Metric Name: log10(IC50) (log10 of the value in nM)

{"columns": ["Molecule", "Observed Measurement"],
 "data": [
  ["COc1cc(CNCC2CCN(c3ncc(-c4cccc(Cl)c4)cc3C(F)(F)F)CC2)ccc1C(=O)NC1CCC(=O)NC1=O (centres unmarked)", 4.05],
  ["O=C1CCC(N2Cc3cc(CNCC4CCN(c5ncc(-c6cccc(OC(F)(F)F)c6)cc5C(F)(F)F)CC4)ccc3C2=O)C(=O)N1 (centres unmarked)", 0.26],
  ["O=C1CCC(N2Cc3cc(C(=O)NCC4CCN(c5ccc(-c6cccc7cccnc67)nc5)CC4)ccc3C2=O)C(=O)N1 (centres unmarked)", 0.70],
  ["O=C1CCC(n2nnc3ccc(CNCC4CCN(c5ncc(-c6cccc(Cl)c6)cc5C(F)(F)F)CC4)cc3c2=O)C(=O)N1 (centres unmarked)", 2.06],
  ["O=C1CCC(NCc2ccc(CNCC3CCN(c4ncc(-c5cccc(Cl)c5)cc4C(F)(F)F)CC3)cc2)C(=O)N1 (centres unmarked)", 3.98],
  ["O=C1CCC(N2Cc3cc(CNCC4CCN(c5ncc(-c6ccccn6)cc5F)CC4)ccc3C2=O)C(=O)N1 (centres unmarked)", 2.94],
  ["O=C1CCC(N2C(=O)c3cccc4c(CNCC5CCN(c6ncc(-c7cccc(Cl)c7)cc6C(F)(F)F)CC5)ccc2c34)C(=O)N1 (centres unmarked)", 3.59],
  ["O=C1CCC(N2Cc3cc(C(=O)NCC4CCN(c5ccc(-c6ccc7ccccc7c6)cn5)CC4)ccc3C2=O)C(=O)N1 (centres unmarked)", 0.63],
  ["NC(=O)c1cc(-c2cccc(Cl)c2)cnc1N1CCC(CNCc2ccc3c(c2)CN(C2CCC(=O)NC2=O)C3=O)CC1 (centres unmarked)", 0.08],
  ["Cc1cccc(-c2cnc(N3CCC(CNCc4ccc5c(c4)CN(C4CCC(=O)NC4=O)C5=O)CC3)c(C(F)(F)F)c2)c1 (centres unmarked)", -1.00],
  ["N#CC1(CNCc2ccc3c(c2)CN(C2CCC(=O)NC2=O)C3=O)CCN(c2ncc(-c3cccc(Cl)c3)cc2C(F)(F)F)CC1 (centres unmarked)", 0.96],
  ["O=C1CCC(N2Cc3c(ccc(CNCC4CCN(c5ncc(-c6cccc(Cl)c6)cc5C(F)(F)F)CC4)c3F)C2=O)C(=O)N1 (centres unmarked)", 1.25],
  ["O=C1CCC(N2Cc3cc(CNCC4CCN(c5ncc(-c6cccc(Cl)c6)cc5C(F)(F)F)CC4)c(F)cc3C2=O)C(=O)N1 (centres unmarked)", 1.23],
  ["O=C1CCC(NC(=O)c2ccc(CNCC3CCN(c4ncc(-c5cccc(Cl)c5)cc4C(F)(F)F)CC3)c(F)c2)C(=O)N1 (centres unmarked)", 3.83],
  ["COc1cc(Cl)cc(-c2cnc(N3CCC(CNCc4ccc5c(c4)CN(C4CCC(=O)NC4=O)C5=O)CC3)c(C(F)(F)F)c2)c1 (centres unmarked)", 0.48],
  ["O=C(CN1CCC(CC(=O)Nc2ccc3c(c2)CN(C2CCC(=O)NC2=O)C3=O)CC1)NCc1cccc2ccccc12 (centres unmarked)", 1.00],
  ["O=C1CCC(N2Cc3cc(NC(=O)CC4CCN(c5ncc(Br)cn5)CC4)ccc3C2=O)C(=O)N1 (centres unmarked)", 0.61],
  ["O=C1CCC(N2Cc3cc(CNCC4CCN(c5ncc(-c6cccc7ccccc67)cn5)CC4)ccc3C2=O)C(=O)N1 (centres unmarked)", 0.30],
  ["O=C1CCC(N2Cc3cc(CNCC4CCN(c5cc(F)c(-c6cccc(Cl)c6)cn5)CC4)ccc3C2=O)C(=O)N1 (centres unmarked)", 1.04],
  ["O=C1CCC(N2C(=O)c3cc4c(cc3C2=O)CN(CC2CCN(c3ncc(-c5cccc(Cl)c5)cc3C(F)(F)F)CC2)C4)C(=O)N1 (centres unmarked)", 3.04],
  ["O=C1CCC(NC(=O)c2ccc(CNCC3CCN(c4ncc(-c5cccc(Cl)c5)cc4C(F)(F)F)CC3)cc2F)C(=O)N1 (centres unmarked)", 3.82],
  ["O=C1CCC(n2nc3cc(CNCC4CCN(c5ncc(-c6cccc(Cl)c6)cc5C(F)(F)F)CC4)ccn3c2=O)C(=O)N1 (centres unmarked)", 2.14],
  ["O=C1CCC(N2Cc3cc(C(=O)NCC4CCN(C(=O)NCCn5c6ccccc6c6cccnc65)CC4)ccc3C2=O)C(=O)N1 (centres unmarked)", 1.76],
  ["O=C1CCC(N2Cc3cc(NC(=O)CC4CCN(C(=O)Cn5c6ccccc6c6cccnc65)CC4)ccc3C2=O)C(=O)N1 (centres unmarked)", 1.59]
]}
